Every entry's value here was drawn from BigSolDB 2.1.

PROTOCOL CONDITIONS: in n-propanol, 288.2 K
METRIC NAME: solubility (mole fraction)
When you answer, write just the number.

Any idea what solubility (mole fraction) was measured for O=C(CCc1ccc(O)cc1)c1c(O)cc(O)cc1O ? 0.03

----------
PROTOCOL CONDITIONS: in n-butyl acetate, 308.2 K
METRIC NAME: solubility (mole fraction)
When you answer, write just the number.

Any idea what solubility (mole fraction) was measured for O=C(CCc1ccc(O)cc1)c1c(O)cc(O)cc1O ? 0.0305

----------
PROTOCOL CONDITIONS: in n-propanol, 298.2 K
METRIC NAME: solubility (mole fraction)
When you answer, write just the number.

Any idea what solubility (mole fraction) was measured for O=C(CCc1ccc(O)cc1)c1c(O)cc(O)cc1O ? 0.0318

----------
PROTOCOL CONDITIONS: in ethyl acetate, 298.2 K
METRIC NAME: solubility (mole fraction)
When you answer, write just the number.

Any idea what solubility (mole fraction) was measured for O=C(CCc1ccc(O)cc1)c1c(O)cc(O)cc1O ? 0.0283

----------
PROTOCOL CONDITIONS: in n-hexanol, 328.2 K
METRIC NAME: solubility (mole fraction)
When you answer, write just the number.

Any idea what solubility (mole fraction) was measured for O=C(CCc1ccc(O)cc1)c1c(O)cc(O)cc1O ? 0.0366

----------
PROTOCOL CONDITIONS: in water, 308.2 K
METRIC NAME: solubility (mole fraction)
When you answer, write just the number.

Any idea what solubility (mole fraction) was measured for O=C(CCc1ccc(O)cc1)c1c(O)cc(O)cc1O ? 1.12e-05

----------
PROTOCOL CONDITIONS: in n-propanol, 318.2 K
METRIC NAME: solubility (mole fraction)
When you answer, write just the number.

Any idea what solubility (mole fraction) was measured for O=C(CCc1ccc(O)cc1)c1c(O)cc(O)cc1O ? 0.0358

----------
PROTOCOL CONDITIONS: in ethanol, 308.2 K
METRIC NAME: solubility (mole fraction)
When you answer, write just the number.

Any idea what solubility (mole fraction) was measured for O=C(CCc1ccc(O)cc1)c1c(O)cc(O)cc1O ? 0.0399

----------
PROTOCOL CONDITIONS: in 1,4-dioxane, 298.2 K
METRIC NAME: solubility (mole fraction)
When you answer, write just the number.

Any idea what solubility (mole fraction) was measured for O=C(CCc1ccc(O)cc1)c1c(O)cc(O)cc1O ? 0.0249

----------
PROTOCOL CONDITIONS: in isopropanol, 308.2 K
METRIC NAME: solubility (mole fraction)
When you answer, write just the number.

Any idea what solubility (mole fraction) was measured for O=C(CCc1ccc(O)cc1)c1c(O)cc(O)cc1O ? 0.039

----------
PROTOCOL CONDITIONS: in ethyl acetate, 288.2 K
METRIC NAME: solubility (mole fraction)
When you answer, write just the number.

Any idea what solubility (mole fraction) was measured for O=C(CCc1ccc(O)cc1)c1c(O)cc(O)cc1O ? 0.0266

----------
PROTOCOL CONDITIONS: in ethyl acetate, 308.2 K
METRIC NAME: solubility (mole fraction)
When you answer, write just the number.

Any idea what solubility (mole fraction) was measured for O=C(CCc1ccc(O)cc1)c1c(O)cc(O)cc1O ? 0.0309

----------
PROTOCOL CONDITIONS: in sec-butanol, 328.2 K
METRIC NAME: solubility (mole fraction)
When you answer, write just the number.

Any idea what solubility (mole fraction) was measured for O=C(CCc1ccc(O)cc1)c1c(O)cc(O)cc1O ? 0.0244

----------
PROTOCOL CONDITIONS: in ethanol, 288.2 K
METRIC NAME: solubility (mole fraction)
When you answer, write just the number.

Any idea what solubility (mole fraction) was measured for O=C(CCc1ccc(O)cc1)c1c(O)cc(O)cc1O ? 0.0345

----------
PROTOCOL CONDITIONS: in n-butyl acetate, 318.2 K
METRIC NAME: solubility (mole fraction)

Any idea what solubility (mole fraction) was measured for O=C(CCc1ccc(O)cc1)c1c(O)cc(O)cc1O ? 0.0323

----------
PROTOCOL CONDITIONS: in methanol, 298.2 K
METRIC NAME: solubility (mole fraction)

Any idea what solubility (mole fraction) was measured for O=C(CCc1ccc(O)cc1)c1c(O)cc(O)cc1O ? 0.0259

----------
PROTOCOL CONDITIONS: in n-pentanol, 318.2 K
METRIC NAME: solubility (mole fraction)
When you answer, write just the number.

Any idea what solubility (mole fraction) was measured for O=C(CCc1ccc(O)cc1)c1c(O)cc(O)cc1O ? 0.0357

----------
PROTOCOL CONDITIONS: in n-pentanol, 288.2 K
METRIC NAME: solubility (mole fraction)
When you answer, write just the number.

Any idea what solubility (mole fraction) was measured for O=C(CCc1ccc(O)cc1)c1c(O)cc(O)cc1O ? 0.0301

----------
PROTOCOL CONDITIONS: in n-butanol, 318.2 K
METRIC NAME: solubility (mole fraction)
When you answer, write just the number.

Any idea what solubility (mole fraction) was measured for O=C(CCc1ccc(O)cc1)c1c(O)cc(O)cc1O ? 0.0378

----------
PROTOCOL CONDITIONS: in n-butyl acetate, 298.2 K
METRIC NAME: solubility (mole fraction)
When you answer, write just the number.

Any idea what solubility (mole fraction) was measured for O=C(CCc1ccc(O)cc1)c1c(O)cc(O)cc1O ? 0.0281

----------
PROTOCOL CONDITIONS: in sec-butanol, 288.2 K
METRIC NAME: solubility (mole fraction)
When you answer, write just the number.

Any idea what solubility (mole fraction) was measured for O=C(CCc1ccc(O)cc1)c1c(O)cc(O)cc1O ? 0.0101

----------
PROTOCOL CONDITIONS: in ethanol, 298.2 K
METRIC NAME: solubility (mole fraction)
When you answer, write just the number.

Any idea what solubility (mole fraction) was measured for O=C(CCc1ccc(O)cc1)c1c(O)cc(O)cc1O ? 0.0373

----------
PROTOCOL CONDITIONS: in n-propanol, 308.2 K
METRIC NAME: solubility (mole fraction)
When you answer, write just the number.

Any idea what solubility (mole fraction) was measured for O=C(CCc1ccc(O)cc1)c1c(O)cc(O)cc1O ? 0.0336

----------
PROTOCOL CONDITIONS: in ethanol, 318.2 K
METRIC NAME: solubility (mole fraction)
When you answer, write just the number.

Any idea what solubility (mole fraction) was measured for O=C(CCc1ccc(O)cc1)c1c(O)cc(O)cc1O ? 0.0421

----------
PROTOCOL CONDITIONS: in methanol, 308.2 K
METRIC NAME: solubility (mole fraction)
When you answer, write just the number.

Any idea what solubility (mole fraction) was measured for O=C(CCc1ccc(O)cc1)c1c(O)cc(O)cc1O ? 0.0275

----------
PROTOCOL CONDITIONS: in ethyl acetate, 318.2 K
METRIC NAME: solubility (mole fraction)
When you answer, write just the number.

Any idea what solubility (mole fraction) was measured for O=C(CCc1ccc(O)cc1)c1c(O)cc(O)cc1O ? 0.0343

----------
PROTOCOL CONDITIONS: in isopropanol, 328.2 K
METRIC NAME: solubility (mole fraction)
When you answer, write just the number.

Any idea what solubility (mole fraction) was measured for O=C(CCc1ccc(O)cc1)c1c(O)cc(O)cc1O ? 0.0429

----------
PROTOCOL CONDITIONS: in water, 288.2 K
METRIC NAME: solubility (mole fraction)
When you answer, write just the number.

Any idea what solubility (mole fraction) was measured for O=C(CCc1ccc(O)cc1)c1c(O)cc(O)cc1O ? 3.46e-06

----------
PROTOCOL CONDITIONS: in 1,4-dioxane, 288.2 K
METRIC NAME: solubility (mole fraction)
When you answer, write just the number.

Any idea what solubility (mole fraction) was measured for O=C(CCc1ccc(O)cc1)c1c(O)cc(O)cc1O ? 0.0211

----------
PROTOCOL CONDITIONS: in methanol, 288.2 K
METRIC NAME: solubility (mole fraction)
When you answer, write just the number.

Any idea what solubility (mole fraction) was measured for O=C(CCc1ccc(O)cc1)c1c(O)cc(O)cc1O ? 0.0245

----------
PROTOCOL CONDITIONS: in n-butanol, 328.2 K
METRIC NAME: solubility (mole fraction)
When you answer, write just the number.

Any idea what solubility (mole fraction) was measured for O=C(CCc1ccc(O)cc1)c1c(O)cc(O)cc1O ? 0.0394
